FYI, the data here is from patent US8324245B2.

- System: met (HGF receptor) in human gastric cancer cells MKN45 (Homo sapiens, UniProt P08581)
- Construct: endogenous in cells
- Sequence (P08581 25-1390): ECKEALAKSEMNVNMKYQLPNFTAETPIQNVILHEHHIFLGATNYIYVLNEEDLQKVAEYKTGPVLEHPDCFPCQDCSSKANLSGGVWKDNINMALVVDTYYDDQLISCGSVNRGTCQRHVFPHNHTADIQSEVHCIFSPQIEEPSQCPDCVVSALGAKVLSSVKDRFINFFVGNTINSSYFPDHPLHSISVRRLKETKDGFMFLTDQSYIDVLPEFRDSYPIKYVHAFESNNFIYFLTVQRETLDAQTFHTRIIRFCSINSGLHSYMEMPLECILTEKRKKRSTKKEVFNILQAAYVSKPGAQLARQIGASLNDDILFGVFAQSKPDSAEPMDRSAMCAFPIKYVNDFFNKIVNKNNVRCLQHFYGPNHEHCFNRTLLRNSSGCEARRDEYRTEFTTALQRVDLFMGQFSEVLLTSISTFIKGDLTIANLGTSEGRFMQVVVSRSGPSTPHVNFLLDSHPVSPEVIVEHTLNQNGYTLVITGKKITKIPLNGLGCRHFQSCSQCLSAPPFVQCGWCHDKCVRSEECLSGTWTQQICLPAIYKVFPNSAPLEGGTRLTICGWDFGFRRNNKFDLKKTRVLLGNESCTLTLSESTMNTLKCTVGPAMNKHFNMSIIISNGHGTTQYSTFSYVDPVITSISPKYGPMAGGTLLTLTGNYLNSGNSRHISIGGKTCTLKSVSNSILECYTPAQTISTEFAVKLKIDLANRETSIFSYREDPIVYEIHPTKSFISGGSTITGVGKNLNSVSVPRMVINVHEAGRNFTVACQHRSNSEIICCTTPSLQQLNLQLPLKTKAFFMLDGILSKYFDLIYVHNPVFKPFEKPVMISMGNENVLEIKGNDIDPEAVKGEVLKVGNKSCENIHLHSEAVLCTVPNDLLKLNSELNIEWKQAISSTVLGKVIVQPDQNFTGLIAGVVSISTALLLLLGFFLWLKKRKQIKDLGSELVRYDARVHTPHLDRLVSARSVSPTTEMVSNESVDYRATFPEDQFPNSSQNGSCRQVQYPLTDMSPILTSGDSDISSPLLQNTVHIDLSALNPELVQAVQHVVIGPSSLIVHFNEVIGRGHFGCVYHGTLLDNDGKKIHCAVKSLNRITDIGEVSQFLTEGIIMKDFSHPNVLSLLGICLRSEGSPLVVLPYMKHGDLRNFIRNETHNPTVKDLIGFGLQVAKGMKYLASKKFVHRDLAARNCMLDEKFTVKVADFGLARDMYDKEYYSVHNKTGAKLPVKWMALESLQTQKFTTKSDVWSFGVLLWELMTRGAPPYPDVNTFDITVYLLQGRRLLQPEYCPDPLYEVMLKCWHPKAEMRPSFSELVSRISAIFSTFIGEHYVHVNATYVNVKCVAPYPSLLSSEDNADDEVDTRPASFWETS
- Protocol summary: Inhibitory activity against met-autophosphorylation using ELISA method (2), MKN45 cells, HGF-independent
Exercise: state measured IC50 for each of the compounds provided.
Numbers only, in µM.

# Chem smiles, Scale unit, IC50
measured = [
    ("COc1cc2c(Oc3ccc(NC(=O)NC(=O)Cc4ccc(F)cc4)cc3F)ccnc2cc1OCCN1CCN(C)CC1", "µM", 0.0514),
    ("COc1cc2nccc(Oc3ccc(NC(=O)NC(=O)Nc4c(Cl)cccc4Cl)cc3)c2cc1OC", "µM", 0.483),
]

Give me IC50 for each of these compounds, listed below.
1. COc1cc2nccc(Oc3ccc(NC(=O)NC(=O)c4ccccc4Cl)c(F)c3)c2cc1OC
2. COc1cc2nccc(Oc3ccc(NC(=S)NC(=O)Cc4ccccc4Cl)c(F)c3)c2cc1OC

Solution:
1: 0.345; 2: 0.256

====

- System: met (HGF receptor) in human gastric cancer cells MKN45 (Homo sapiens, UniProt P08581)
- Construct: endogenous in cells
- Protocol summary: Inhibitory activity against met-autophosphorylation using ELISA method (2), MKN45 cells, HGF-independent
Property name: pIC50
Numbers only, as −log10 of the molar value.

# Compound, Observed value
records = [
    ("COc1cc2nccc(Oc3ccc(NC(=O)CC(=O)Nc4ccc(F)cc4F)c(C)c3)c2cc1OC [Example 223]", 6.57),
    ("COc1cc2c(Oc3ccc(NC(=S)NC(=O)Cc4ccc(Cl)cc4)cc3F)ccnc2cc1OCC(O)CN1CCOCC1 (stereo not shown) [Example 326]", 7.88),
    ("COc1cc2c(Oc3ccc(NC(=S)NC(=O)Cc4cccc(Cl)c4)cc3F)ccnc2cc1OCC(O)CN1CCOCC1 (stereo not shown) [Example 320]", 7.85),
    ("COc1cc2c(Oc3ccc(NC(=O)NC(=O)Cc4ccccc4F)cc3F)ccnc2cc1OCCCN1CCCCC1 [Example 295]", 7.62),
]

Give me pIC50 for each of these compounds, listed below.
1. COc1cc2nccc(Oc3ccc(NC(=O)NC(=O)Cc4ccccc4F)cc3F)c2cc1OC [Example 27]
2. COc1cc2c(Oc3ccc(NC(=S)NC(=O)Cc4ccc(F)cc4)cc3F)ccnc2cc1OCC(O)CN1CCOCC1 (stereo not shown) [Example 313]
3. COc1cc2c(Oc3ccc(NC(=S)NC(=O)Cc4ccccc4)cc3Cl)ccnc2cc1OCCCN1CCOCC1 [Example 300]

Solution:
1: 7.10; 2: 7.68; 3: 7.65

====

- System: met (HGF receptor) in human gastric cancer cells MKN45 (Homo sapiens)
- Construct: endogenous in cells; host or cells: MKN45 human gastric cancer cells
- Protocol summary: Inhibitory activity against met-autophosphorylation using ELISA method (2), MKN45 cells, HGF-independent
- Type: cell-based
Property name: IC50 (nM)
Numbers only, in nM.

// solved cases for IC50 follow
# Compound, Property name, Observed value
records = [
    ("COc1cc2nccc(Oc3ccc(NC(=O)NC(=O)CC4C5CCC4CC5)c(F)c3)c2cc1OC (stereo not shown)", "IC50", 330),
    ("COc1cc2nccc(Oc3ccc(NC(=O)NC(=O)Nc4ccc(Cl)cc4)cc3)c2cc1OC", "IC50", 526),
    ("COc1cc2nccc(Oc3ccc(NC(=O)NC(=O)Cc4ccc(F)c(F)c4)cc3)c2cc1OC", "IC50", 114),
    ("CCN(CC)CC(=O)NC(=O)Nc1ccc(Oc2ccnc3cc(OC)c(OC)cc23)c(Cl)c1", "IC50", 2380),
    ("COc1cc2c(Oc3ccc(NC(=O)NC(=O)Cc4ccccc4)cc3F)ccnc2cc1OCCCN1CCC(CO)CC1", "IC50", 21.4),
]

Give me IC50 for each of these compounds, listed below.
1. COc1cc2nccc(Oc3ccc(NC(=S)NC(=O)Cc4ccccc4[N+](=O)[O-])cc3Cl)c2cc1OC
2. COc1cc2nccc(Oc3ccc(NC(=O)CC(=O)NC(C)c4ccccc4)cc3)c2cc1OC (stereo not shown)
3. COc1cc2c(Oc3ccc(NC(=O)NC(=O)Cc4ccc(F)cc4)c(F)c3)ccnc2cc1OCCCN1CCN(C)CC1
4. COc1cc2c(Oc3ccc(NC(=O)NC(=O)Cc4ccc(F)cc4)cc3F)ccnc2cc1OCCCCN1CCCCC1
5. COc1cc2c(Oc3ccc(NC(=S)NC(=O)Cc4ccc(F)cc4)cc3F)ccnc2cc1OCCN1CCC(CO)CC1
6. COc1cc2c(Oc3ccc(NC(=O)NC(=O)Cc4ccccc4)cc3F)ccnc2cc1OCCCN1CCOCC1

Solution:
373
2530
203
190
16.6
20.2
